Tested on: THRa:RXRa (NR concentration 90 nM, RXRa partner concentration 90 nM)
Measurement description: PBM binding z-score (relative to random genomic background probes); higher = stronger binding; sequences stand for … in GC…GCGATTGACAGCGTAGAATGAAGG
PBM binding z-score vs 2: at or above is class 1, below is class 0.

Entry GCAGACAAGTGAAACGCAGGTAACTCAGGGTGGC : is its PBM binding z-score no less than 2?
class 0

* * *

Test system: LXRa homodimer (NR concentration 270 nM)
Measurement description: PBM binding z-score (relative to random genomic background probes); higher = stronger binding; sequences stand for … in GC…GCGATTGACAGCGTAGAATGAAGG
Quantity name: PBM binding z-score
Lab note: write the figure by itself, no unit.

Some sequences with recorded PBM binding z-score:
1. CCTGCTAGGTTAATGGTCAGCTAAAGCAGCTCGC    -0.415
2. ATATGTCGGTTAGCTGGGGTCATTCAGACTAGGC    2.96
3. CCGAGTAGGTTGTGGGGCATTCAGGCAACGGTGA    0.0165

Let's switch to this sequence now.
Return reported PBM binding z-score; argument: TCTTGTATATCAGCAGGTTAAGAAAGCTGGCCAA
0.29
